Tested on: MDA468 (human breast cancer cell)
Test: Cell proliferation (MTS) assay, MDA468
Type: cell-based
Conditions: Homo sapiens, 72 h, Table 1; three days treatment
Listing of entries alongside the reported IC50.
measure.name: IC50

compound | assay.value
COC[C@H]1OC(=O)/C(=C/Nc2ccccc2)C2=C(O)C(=O)C3=C([C@H](OC(C)=O)C[C@]4(C)[C@@H](O)CC[C@@H]34)[C@]21C | 5 µg/mL
COC[C@H]1OC(=O)/C(=C/N(C)CCCN(C)C)C2=C(O)C(=O)C3=C([C@H](OC(C)=O)C[C@@]4(C)C3CC[C@@H]4O)[C@]21C (stereo partly drawn) | 1.8 µg/mL
COC[C@H]1OC(=O)/C(=C/N2CCc3ccccc3C2)C2=C(O)C(=O)C3=C([C@H](OC(C)=O)C[C@@]4(C)C3CC[C@@H]4O)[C@]21C (stereo partly drawn) | 6 µg/mL

* * *

Recorded IC50, one value per entry.
Target: Human TOR (Homo sapiens, UniProt P42345)
Construct: FLAG
Experiment: Human TOR (mTOR) kinase assay, DELFIA format
Assay type: biochemical
Details: Table 1

molecule | result.units | IC50
CCN(/C=C1/C(=O)O[C@H](COC)[C@@]2(C)C1=C(O)C(=O)C1=C2[C@H](OC(C)=O)C[C@@]2(C)C1CC[C@@H]2OC=O)CC (stereo partly shown) | nM | 4700
COC[C@H]1OC(=O)/C(=C/N2CCc3ccccc3C2)C2=C(O)C(=O)C3=C([C@H](OC(C)=O)C[C@@]4(C)C3CC[C@@H]4O)[C@]21C (stereo partly shown) | nM | 3190
COC[C@H]1OC(=O)/C(=C/N2CCN(c3ccccc3)CC2)C2=C(O)C(=O)C3=C([C@H](OC(C)=O)C[C@@]4(C)C3CC[C@@H]4O)[C@]21C (stereo partly shown) | nM | 607
CCCC(=O)OC1CC2(C)C(O)CCC2C2=C1C1(C)C(=C(O)C2=O)C(=CN(C)CC(C)N(C)C)C(=O)OC1COC (stereo not shown) | nM | 539
COC[C@H]1OC(=O)/C(=C/N2CCC(c3ccccc3)CC2)C2=C(O)C(=O)C3=C([C@H](OC(C)=O)C[C@@]4(C)C3CC[C@@H]4O)[C@]21C (stereo partly shown) | nM | 2450
COCC1OC(=O)C(=CN(CCN(C)C)Cc2ccccc2)C2=C(O)C(=O)C3=C(C(OC(C)=O)CC4(C)C(O)CCC34)C21C (stereo not shown) | nM | 4600
CCCCSC=C1C(=O)OC(COC)C2(C)C1=C(O)C(=O)C1=C2C(OC(C)=O)CC2(C)C(O)CCC12 (stereo not shown) | nM | 2500

* * *

System: MDA435 (human breast adenocarcinoma)
Assay: Cell proliferation (MTS) assay, MDA435
Type: cell-based
Conditions: Homo sapiens, MDA435, 72 h, Table 2; three days treatment
measure.name: IC50

compound | assay.value
COCC1OC(=O)C(=CN(C)CCCN2CCN(c3ccc(OC)cc3)CC2)C2=C(O)C(=O)C3=C(C(OC(C)=O)CC4(C)C(O)CCC34)C21C (stereo not drawn) | 16 µg/mL
COCC1OC(=O)C(=CN(CCO)CCO)C2=C(O)C(=O)C3=C(C(OC(C)=O)CC4(C)C(O)CCC34)C21C (stereo not drawn) | 6 µg/mL
COCC1OC(=O)C(=CN(Cc2ccccc2)CC23CCCN(CCC2)C3)C2=C(O)C(=O)C3=C(C(OC(C)=O)CC4(C)C(O)CCC34)C21C (stereo not drawn) | > 30 µg/mL
COCC1OC(=O)C(=CN(C)C(C)(C)C)C2=C(O)C(=O)C3=C(C(OC(C)=O)CC4(C)C(O)CCC34)C21C (stereo not drawn) | 5 µg/mL
COCC1OC(=O)C(=CN(CCCN(C)C)CCCN(C)C)C2=C(O)C(=O)C3=C(C(OC(C)=O)CC4(C)C(O)CCC34)C21C (stereo not drawn) | 11 µg/mL
COCC1OC(=O)C(=CN2CCC(C(=O)O)CC2)C2=C(O)C(=O)C3=C(C(OC(C)=O)CC4(C)C(O)CCC34)C21C (stereo not drawn) | 17 µg/mL
